test: Quantitative High-Throughput drug screen in 47 multiple myeloma cell lines against the NCATS MIPE library collection: Karpas620_DSMZ cell viability assay (AID 1918959); conditions: Karpas620 myeloma viability, CellTiter-Glo ATP luminescence, 48 h; series mostly up to 45.8 µM; also: nearly all actives have a fitted effect of over 30% in size
Inconclusive results are not listed. Active and inactive are the calls of the source. Calls follow the shape of the dose curve; as a rule, active = well fitted cell-killing curve with a large enough effect; inconclusive = small, poorly fitted or top-dose-only effect, or effect the other way; inactive = no such curve, though single readings can be large or run the other way.
Could you please pick one outcome from this set? label 1 (active), label 0 (inactive)

molecule | class-assignment
CCOC(=O)c1ccc(OC(=O)CCCCCN=C(N)N)cc1 | label 0
N[C@@H](Cc1ccc(O)c(O)c1)C(=O)O | label 0
CC(C)Cn1cnc2c(N)nc3ccccc3c21 | label 0
Nc1nc(F)nc2c1ncn2[C@@H]1O[C@H](CO)[C@@H](O)[C@@H]1O | label 1
Cn1nnc2c(C(N)=O)ncn2c1=O | label 0

Prompt line: Please let me know the test result on file for `Cc1nnc(NS(=O)(=O)c2ccc(N)cc2)s1` .
Response line: label 1

Prompt line: Also `NCCCC(O)(P(=O)(O)O)P(=O)(O)O` ?
Response line: label 0

Prompt line: Also `CS(=O)(=O)c1ccc([C@@H](O)[C@@H](CO)NC(=O)C(Cl)Cl)cc1` ?
Response line: label 0
